Value source: patent US20220064286A1

- EXPERIMENTAL_SYSTEM: T1, human TIGIT protein (human, UniProt Q495A1 22-141, limits assumed)
- T1 construct: Recombinant protein (Genentech) used in ELISA screening and as SPR analyte; also called TIGIT antigen
- T1 sequence: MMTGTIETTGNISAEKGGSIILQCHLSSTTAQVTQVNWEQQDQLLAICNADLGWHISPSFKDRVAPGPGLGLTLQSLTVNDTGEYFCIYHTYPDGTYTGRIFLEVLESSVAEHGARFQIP
- ASSAY_REMARKS: SPR, captured mAb
ASSAY_METRIC: pKd
Remember, pKd is on a log scale: it is -log10 of the molar concentration.

Task item: I am curious: what pKd value has been reported for h15C8.L5H1 (antibody, V domains shown, VL: I58V, Y71F, F87Y against h15C8.L1H1; FR/HVR pieces) VH: EVQLVQSGAEVKKPGASVKVSCKASGYTFTEHSIYWLRQAPGQRLEIIGRIDPKNGRTYFVDKFKNRATLTTDTSASTAYMELSSLRSEDTAVYFCARIDGFYFDFWGQGTLVTVSS VL: DIQLTQSPSFLSASVGDRVTITCKGSQNVNKYLVWYQQKPGKAPKLLIYSTDNLQSGVPSRFSGSGSGTEFTLTISSLQPEDFATYYCYQYNNGFTFGQGTKVEIK ?
Reply: 9.08
